- study-target: T1, 4H2473-bH
- T1 chain: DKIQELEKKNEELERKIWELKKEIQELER
- method-description: two-hybrid library CCNG1;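 also: natural log of median RNA to DNA barcode read ratio; higher means stronger binding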
parameter: interaction score

binder	parameter	result-value
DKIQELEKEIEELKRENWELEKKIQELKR [4H2134-bH]	interaction score	0.459
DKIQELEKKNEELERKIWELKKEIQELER [4H2473-bH]	interaction score	1.05
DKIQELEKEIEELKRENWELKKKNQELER [4H2143-bH]	interaction score	-0.279

P. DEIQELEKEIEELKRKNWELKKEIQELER [4H121-bH]
Q. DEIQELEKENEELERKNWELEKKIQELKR [4H182-bH]
R. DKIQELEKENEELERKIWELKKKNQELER [4H2223-bH]
S. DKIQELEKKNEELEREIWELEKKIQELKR [4H2438-bH]
Rank the items in ascending order with respect to interaction score. Use the labels to give the ranking in the order requested.
P, Q, R, S

This collection of values is drawn from paper PMC10397247.
